Please provide measured MIC for the entries that follow.
System: P. aeruginosa (gentamicin-resistant) CAN-ICU 62308
TEST_PROTOCOL: MIC, broth macrodilution (CLSI)
Type: cell-based
DETAILS: P. aeruginosa CAN-ICU 62308

Recorded results for 3 compounds are shown here.
COMPOUND	OBSERVED_PROPERTY	RESULT
NC[C@H]1O[C@H](O[C@H]2[C@H](O)[C@@H](O[C@H]3O[C@H](CO)[C@@H](O)[C@H](N)[C@H]3O)[C@H](N)C[C@@H]2N)[C@H](O)[C@@H](O)[C@@H]1O [Kanamycin A, reference compound]	MIC	>512 µg/mL
CCCCCCCCCCCCCCCC(=O)NCC1OC(OC2C(NC(=N)N)CC(NC(=N)N)C(OC3OC(CNC(=N)N)C(O)C(O)C3O)C2O)C(O)C(NC(=N)N)C1O.O=C(O)C(F)(F)F.O=C(O)C(F)(F)F.O=C(O)C(F)(F)F.O=C(O)C(F)(F)F (stereo not shown)	MIC	64 µg/mL
CCCCCCCCCCCCCCCCCCCC(=O)NC[C@H]1O[C@@H](O[C@@H]2[C@@H](O)[C@H](N)C[C@H](N)[C@H]2O[C@H]2O[C@H](CN)[C@@H](O)[C@H](O)[C@H]2N)[C@H](O)[C@@H]1O[C@H]1O[C@@H](CN)[C@@H](O)[C@H](O)[C@H]1N.O=C(O)C(F)(F)F.O=C(O)C(F)(F)F.O=C(O)C(F)(F)F.O=C(O)C(F)(F)F.O=C(O)C(F)(F)F.O=C(O)C(F)(F)F	MIC	64 µg/mL

According to the records, this compound "C[C@H](CCC(=O)NC[C@H]1O[C@@H](O[C@@H]2[C@@H](O)[C@H](N)C[C@H](N)[C@H]2O[C@H]2O[C@H](CN)[C@@H](O)[C@H](O)[C@H]2N)[C@H](O)[C@@H]1O[C@H]1O[C@@H](CN)[C@@H](O)[C@H](O)[C@H]1N)[C@H]1CC[C@H]2[C@@H]3[C@H](O)C[C@@H]4C[C@H](O)CC[C@]4(C)[C@H]3C[C@H](O)[C@]12C.O=C(O)C(F)(F)F.O=C(O)C(F)(F)F.O=C(O)C(F)(F)F.O=C(O)C(F)(F)F.O=C(O)C(F)(F)F.O=C(O)C(F)(F)F" displays MIC of 128 µg/mL

* * *

System: MRSE CAN-ICU 61589
TEST_PROTOCOL: MIC, broth macrodilution (CLSI)
Type: cell-based, methicillin-resistant Staphylococcus epidermidis
Method: All experiments were performed in duplicate. Bacterial isolates studied included both reference strains obtained from the American Type Culture Collection (ATCC) as well as clinical strains obtained from the CAN-ICU study which was a national surveillance study assessing the prevalence of antimicrobial resistant pathogens in Canadian intensive care units (Zhanel et al., 2008). Isolates were kept frozen in skim milk at −80° C. until minimum inhibitory concentration (MIC) testing was carried out. […]
OBSERVED_PROPERTY: MIC (mg/L)
One number for each entry, in mg/L.

For record C[C@H](CCC(=O)NC[C@H]1O[C@@H](O[C@@H]2[C@@H](O)[C@H](N)C[C@H](N)[C@H]2O[C@H]2O[C@H](CN)[C@@H](O)[C@H](O)[C@H]2N)[C@H](O)[C@@H]1O[C@H]1O[C@@H](CN)[C@@H](O)[C@H](O)[C@H]1N)[C@H]1CC[C@H]2[C@@H]3[C@H](O)C[C@@H]4C[C@H](O)CC[C@]4(C)[C@H]3C[C@H](O)[C@]12C.O=C(O)C(F)(F)F.O=C(O)C(F)(F)F.O=C(O)C(F)(F)F.O=C(O)C(F)(F)F.O=C(O)C(F)(F)F.O=C(O)C(F)(F)F [Compound 7] the listed MIC is 16

* * *

Tested on: MRSE CAN-ICU 61589
TEST_PROTOCOL: MIC, broth macrodilution (CLSI)
Assay type: cell-based, methicillin-resistant Staphylococcus epidermidis
Provide the recorded MIC for the entries that follow.
One number for each entry, in µg/mL.

COMPOUND	MIC (µg/mL)
NC[C@H]1O[C@H](O[C@H]2[C@H](O)[C@@H](O[C@H]3O[C@H](CO)[C@@H](O)[C@H](N)[C@H]3O)[C@H](N)C[C@@H]2N)[C@H](O)[C@@H](O)[C@@H]1O [Kanamycin A, reference compound]	128
CCCCCCCCCCCC(=O)NC[C@H]1O[C@@H](O[C@@H]2[C@@H](O)[C@H](N)C[C@H](N)[C@H]2O[C@H]2O[C@H](CN)[C@@H](O)[C@H](O)[C@H]2N)[C@H](O)[C@@H]1O[C@H]1O[C@@H](CN)[C@@H](O)[C@H](O)[C@H]1N.O=C(O)C(F)(F)F.O=C(O)C(F)(F)F.O=C(O)C(F)(F)F.O=C(O)C(F)(F)F.O=C(O)C(F)(F)F.O=C(O)C(F)(F)F [Compound 2]	8

Please fill in: MIC reported for CC(CCC(=O)NCC1OC(OC2C(O)C(NC(=N)N)CC(NC(=N)N)C2OC2OC(CNC(=N)N)C(O)C(O)C2NC(=N)N)C(O)C1OC1OC(CNC(=N)N)C(O)C(O)C1NC(=N)N)C1CCC2C3C(O)CC4CC(O)CCC4(C)C3CC(O)C12C.O=C(O)C(F)(F)F.O=C(O)C(F)(F)F.O=C(O)C(F)(F)F.O=C(O)C(F)(F)F.O=C(O)C(F)(F)F.O=C(O)C(F)(F)F (stereo not drawn) [Compound 14] = 8

* * *

Please go through the items and note down their MIC.
Tested on: S. epidermidis ATCC 14990
TEST_PROTOCOL: MIC, broth macrodilution (CLSI)
Type: cell-based, Staphylococcus epidermidis
DETAILS: S. epidermidis ATCC14990
Answers are plain numbers, in µg/mL.

Some solved entries appear below for comparison.
COMPOUND	MIC, µg/mL
CCCCCCCCCCCCCCCC(=O)NCC1OC(OC2C(NC(=N)N)CC(NC(=N)N)C(OC3OC(CNC(=N)N)C(O)C(O)C3O)C2O)C(O)C(NC(=N)N)C1O.O=C(O)C(F)(F)F.O=C(O)C(F)(F)F.O=C(O)C(F)(F)F.O=C(O)C(F)(F)F (centres unmarked) [Compound 16]	8
NC[C@H]1O[C@H](O[C@H]2[C@H](O)[C@@H](O[C@H]3O[C@H](CO)[C@@H](O)[C@H](N)[C@H]3O)[C@H](N)C[C@@H]2N)[C@H](O)[C@@H](O)[C@@H]1O [Kanamycin A, reference compound]	2
CCCCCCCCCCCCCCCCCCCC(=O)NCC1OC(OC2C(O)C(NC(=N)N)CC(NC(=N)N)C2OC2OC(CNC(=N)N)C(O)C(O)C2NC(=N)N)C(O)C1OC1OC(CNC(=N)N)C(O)C(O)C1NC(=N)N.O=C(O)C(F)(F)F.O=C(O)C(F)(F)F.O=C(O)C(F)(F)F.O=C(O)C(F)(F)F.O=C(O)C(F)(F)F.O=C(O)C(F)(F)F (centres unmarked) [Compound 11]	4

Would you mind giving MIC for every compound in the list below?
1. NC[C@@H]1O[C@H](O[C@H]2[C@@H](O)[C@H](O[C@@H]3[C@@H](O)[C@H](N)C[C@H](N)[C@H]3O[C@H]3O[C@H](CN)[C@@H](O)[C@H](O)[C@H]3N)O[C@@H]2CO)[C@H](N)[C@@H](O)[C@@H]1O [Neomycin B, reference compound]
2. CCCCC/C=C\C/C=C\CCCCCCCC(=O)NC[C@H]1O[C@@H](O[C@@H]2[C@@H](O)[C@H](N)C[C@H](N)[C@H]2O[C@H]2O[C@H](CN)[C@@H](O)[C@H](O)[C@H]2N)[C@H](O)[C@@H]1O[C@H]1O[C@@H](CN)[C@@H](O)[C@H](O)[C@H]1N.O=C(O)C(F)(F)F.O=C(O)C(F)(F)F.O=C(O)C(F)(F)F.O=C(O)C(F)(F)F.O=C(O)C(F)(F)F.O=C(O)C(F)(F)F [Compound 5]

Return:
0.25
4
